test system: HB3; test: qHTS profiling for inhibitors of Plasmodium falciparum proliferation (AID 504749); note: nearly all actives have a fitted effect of over 60% in size; conditions: P. falciparum in erythrocytes, SYBR Green DNA, 72 h; series mostly up to 12.8 µM
Results filed as inconclusive are left out. Activity calls are given as the source filed them. Calls come from the whole dose curve; as a rule, active = well fitted inhibition curve with a large enough effect; inconclusive = small, poorly fitted or top-dose-only effect; inactive = flat fitted curve, though single readings scatter.
Just give me one of these, please: active, inactive

Check out these entries, answers already filled in.
molecule	test system	group
CCCC(=O)O[C@]1(C(=O)CO)CCC2[C@@H]3CCC4=CC(=O)CC[C@]4(C)C3C(O)C[C@]21C (stereo partly specified)	HB3	inactive
COc1ccc([C@@H]2CC(=O)c3c(O)cc(O[C@H]4O[C@@H](CO[C@H]5O[C@@H](C)[C@@H](O)[C@@H](O)[C@@H]5O)[C@@H](O)[C@@H](O)[C@@H]4O)cc3O2)cc1O	HB3	inactive
C[C@H](C(=O)O)c1cccc(Oc2ccccc2)c1	HB3	inactive
NC(=O)c1ccc[n+]([C@@H]2O[C@H](COP(=O)([O-])OP(=O)(O)OC[C@H]3O[C@@H](n4cnc5c(N)ncnc54)[C@@H](O)[C@@H]3O)[C@@H](O)[C@@H]2O)c1	HB3	inactive
CN1CCC[C@@H](CC2c3ccccc3Sc3ccccc32)C1	HB3	inactive
C[C@H]1CC[C@]2(OC1)O[C@@H]1C[C@@H]3[C@@H]4CC[C@H]5C[C@@H](O)CC[C@]5(C)[C@@H]4CC(=O)[C@@]3(C)[C@H]1[C@@H]2C	HB3	inactive
C[C@@H]1C[C@H]2[C@@H]3C[C@H](F)C4=CC(=O)C=C[C@@]4(C)[C@]3(F)[C@H](O)C[C@]2(C)[C@@]1(O)C(=O)CO	HB3	inactive
COc1ccc(-c2cc(=O)c3c(O)cc(O[C@H]4OC(COC5OC(C)C(O)C(O)[C@H]5O)C(O)C(O)C4O)cc3o2)cc1O (stereo partly specified)	HB3	inactive
CCOC(=O)O[C@]1(C(=O)COC(=O)CC)CC[C@@H]2[C@@H]3CCC4=CC(=O)C=C[C@@]4(C)[C@H]3[C@H](O)C[C@]21C	HB3	inactive
NC(C(=O)O)[C@@H]1CC(Cl)=NO1 (stereo partly specified)	HB3	active

Dear all, I need the recorded test outcome for CC(=O)OC1CCC2C3CCc4cc(O)ccc4C3CCC12C (stereo unspecified) , thank you.
inactive

Dear all, I need the recorded test outcome for `CN[C@H]1[C@@H](O)[C@@H](NC)[C@@H]2O[C@@]3(O)C(=O)C[C@@H](C)O[C@H]3O[C@H]2[C@H]1O` , thank you.
inactive

Dear all, I need the recorded test outcome for `C[C@H](CCC(=O)O)[C@H]1CC[C@@H]2[C@@H]3[C@@H](O)C[C@H]4C[C@@H](O)CC[C@@]4(C)[C@H]3CC[C@@]21C` , thank you.
inactive

Dear all, I need the recorded test outcome for CCC1OC(=O)C(C)[C@@H](O[C@H]2C[C@@](C)(OC)C(O)C(C)O2)C(C)[C@@H](O[C@@H]2OC(C)CC(N(C)C)C2O)[C@@](C)(O)CC(C)C(=O)[C@@H](C)C(O)[C@]1(C)O (stereo partly specified) , thank you.
inactive

Dear all, I need the recorded test outcome for `CCCC[C@H](CC)CN1CN(C[C@@H](CC)CCCC)CC(C)(N)C1` , thank you.
inactive

Dear all, I need the recorded test outcome for CCC(CCC(C)C1CCC2C3CC=C4CC(O)CC[C@@]4(C)C3CC[C@@]12C)C(C)C (stereo partly specified) , thank you.
inactive

Dear all, I need the recorded test outcome for `COC(=O)N/N=C/C1=C[N+](=O)c2ccccc2[N+]1=O` , thank you.
inactive

Dear all, I need the recorded test outcome for `Clc1ccc([C@H](Cn2ccnc2)OCc2c(Cl)cccc2Cl)c(Cl)c1` , thank you.
active

Dear all, I need the recorded test outcome for `NS(=O)(=O)c1cc2c(cc1Cl)N[C@@H](C(Cl)Cl)NS2(=O)=O` , thank you.
inactive

Dear all, I need the recorded test outcome for `CC1(C)[C@@H](OC(=O)CCC(=O)O)CC[C@@]2(C)[C@H]1CC[C@@]1(C)[C@H]2C(=O)C=C2[C@H]3C[C@](C)(C(=O)O)CC[C@]3(C)CC[C@@]21C` , thank you.
inactive

Dear all, I need the recorded test outcome for `CN1CCN([C@@H](c2ccccc2)c2ccc(Cl)cc2)CC1` , thank you.
inactive

Dear all, I need the recorded test outcome for CC[C@@]12CCCN3CCc4c(n(c5ccccc45)[C@](O)(C(=O)OC)C1)C32 (stereo partly specified) , thank you.
inactive

Dear all, I need the recorded test outcome for `COc1c(O[C@H]2O[C@@H](CO)[C@@H](O)[C@@H](O)[C@@H]2O)cc2c(c1OC)-c1ccc(SC)c(=O)cc1[C@H](NC(C)=O)CC2` , thank you.
inactive

Dear all, I need the recorded test outcome for COC1C=CO[C@@]2(C)Oc3c(C)c(O)c4c(O)c(c(C=NN5CCN(C)CC5)c(O)c4c3C2=O)NC(=O)/C(C)=C\C=CC(C)C(O)[C@@H](C)C(O)C(C)[C@H](OC(C)=O)C1C (stereo partly specified) , thank you.
active

Dear all, I need the recorded test outcome for CNC1CC(N)[C@H](O)[C@@H](O[C@@H]2OC(CO)C3OC4(OC(C(N)CO)C(O)C(O)C4O)O[C@@H]3[C@H]2O)C1O (stereo partly specified) , thank you.
inactive

Dear all, I need the recorded test outcome for `Cc1ccsc1/C=C\C1=NCCCN1C` , thank you.
inactive

Dear all, I need the recorded test outcome for `CO[C@H]1[C@H](O[C@H]2O[C@@H](C)[C@@H](O[C@@H]3C[C@](C)(O)[C@H](O)[C@H](C)O3)[C@@H](N(C)C)[C@@H]2O)[C@@H](CC=O)C[C@@H](C)[C@@H](O[C@H]2CC[C@H](N(C)C)[C@H](C)O2)/C=C\C=C/C[C@@H](C)OC(=O)C[C@H]1O` , thank you.
inactive

Dear all, I need the recorded test outcome for `CC=C(/C(=C/C)c1ccc(O)cc1)c1ccc(O)cc1` , thank you.
inactive

Dear all, I need the recorded test outcome for CCCCC[C@H](O)/C=C\[C@H]1[C@H](C/C=C\CCCC(=O)O)[C@@H](O)C[C@H]1O (tested in a mixture with another compound) , thank you.
inactive

Dear all, I need the recorded test outcome for COc1ccc2cc(C(C)CO)ccc2c1 (stereo unspecified) , thank you.
inactive

Dear all, I need the recorded test outcome for `CC(=O)OCC(=O)[C@@]12OC(C)(C)O[C@@H]1C[C@H]1[C@H]3C[C@H](F)C4=CC(=O)C=C[C@@]4(C)[C@]3(F)[C@H](O)C[C@@]12C` , thank you.
inactive

* * *

molecular target: Rap guanine nucleotide exchange factor 3 (Homo sapiens) (UniProt O95398); assay: Confirmatory qHTS for antagonist of cAMP-regulated guanine nucleotide exchange factor 3 (EPAC1) (AID 1645880); details: EPAC1 Rap1B-BODIPY-GDP exchange, fluorescence; series mostly up to 115 µM; note: nearly all actives have a fitted effect of over 55% in size
Sequence (O95398 whole entry, looked up): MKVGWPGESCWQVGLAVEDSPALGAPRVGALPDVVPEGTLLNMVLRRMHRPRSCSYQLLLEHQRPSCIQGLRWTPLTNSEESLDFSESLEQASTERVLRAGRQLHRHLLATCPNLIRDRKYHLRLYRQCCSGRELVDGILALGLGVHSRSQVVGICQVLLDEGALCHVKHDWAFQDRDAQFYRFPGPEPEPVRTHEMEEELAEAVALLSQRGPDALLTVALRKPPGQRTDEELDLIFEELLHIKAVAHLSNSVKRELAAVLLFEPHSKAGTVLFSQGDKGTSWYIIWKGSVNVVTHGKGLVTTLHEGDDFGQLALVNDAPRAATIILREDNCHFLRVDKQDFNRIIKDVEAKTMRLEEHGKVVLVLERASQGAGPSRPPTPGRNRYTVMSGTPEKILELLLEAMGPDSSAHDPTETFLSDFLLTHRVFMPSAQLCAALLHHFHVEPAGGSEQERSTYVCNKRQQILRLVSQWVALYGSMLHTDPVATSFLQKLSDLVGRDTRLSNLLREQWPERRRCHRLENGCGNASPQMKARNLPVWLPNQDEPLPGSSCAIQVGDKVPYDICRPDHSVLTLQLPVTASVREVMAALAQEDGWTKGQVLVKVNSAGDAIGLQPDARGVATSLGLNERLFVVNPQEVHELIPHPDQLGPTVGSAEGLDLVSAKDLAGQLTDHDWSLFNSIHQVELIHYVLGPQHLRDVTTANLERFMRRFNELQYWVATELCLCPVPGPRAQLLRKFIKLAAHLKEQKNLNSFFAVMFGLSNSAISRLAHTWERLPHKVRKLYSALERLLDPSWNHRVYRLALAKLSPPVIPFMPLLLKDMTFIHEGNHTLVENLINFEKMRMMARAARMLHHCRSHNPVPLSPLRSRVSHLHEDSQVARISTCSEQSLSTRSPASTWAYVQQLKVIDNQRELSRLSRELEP
Inconclusive results are not listed. The source made the active and inactive calls. The call rests on the fitted dose curve; in most records, active means well fitted inhibition curve with a large enough effect; inconclusive means small, poorly fitted or top-dose-only effect; inactive means no such curve, though single readings can be large or run the other way.
Just give me one of these, please: active, inactive

Check out these entries, answers already filled in.
molecule	group
C=CCn1c(NC(=O)c2ccccc2Cl)c(C#N)c2nc3ccccc3nc21	active
COc1ccc(C(=O)c2c(-c3ccc(OC)cc3)oc3ccccc23)cc1	inactive
COc1ccc(-c2nc3cc(C)ccc3cc2CN(C(=O)c2cccs2)C2CC2)cc1OC	inactive
Cc1ccc(NC(=O)Cn2nc(C)c3nn(-c4ccc(Cl)cc4)c(C)c3c2=O)cc1F	inactive
CC(C)CC1C(=O)N(Cc2cn(CCC3OCCCO3)nn2)CCS(=O)(=O)N1Cc1ccc(-c2ccccc2)cc1 (configuration not stated)	inactive

Dear all, I need the recorded test outcome for CC(Sc1nncn1C)C(=O)Nc1nnc(C(C)C)s1 (configuration not stated) , thank you.
inactive

Dear all, I need the recorded test outcome for `CCCCOc1ccccc1Cn1c(=O)sc2ccccc21` , thank you.
inactive

Dear all, I need the recorded test outcome for `Cc1ccc2nc(NC(=O)CSc3nc(=O)n(CCCN(C)C)c4c3CCC4)sc2c1` , thank you.
inactive

Dear all, I need the recorded test outcome for CC1(C(=O)NS(=O)(=O)c2ccc(Cl)s2)CCN1C(=O)C1(c2ccc(Cl)cc2)CCC1 (configuration not stated) , thank you.
active

Dear all, I need the recorded test outcome for `COC(=O)c1sccc1NS(=O)(=O)c1ccccc1[N+](=O)[O-]` , thank you.
inactive

Dear all, I need the recorded test outcome for `Cc1ccc(NC(=O)C2CCN(S(=O)(=O)c3ccc4c(c3)OCCCO4)CC2)nc1` , thank you.
inactive

* * *

molecular target: Rap guanine nucleotide exchange factor 4 (Homo sapiens); assay: Confirmatory qHTS for antagonist of cAMP-regulated guanine nucleotide exchange factor 4 (EPAC2) (AID 1645885); settings: EPAC2 Rap1B-BODIPY-GDP exchange fluorescence, biochemical; series mostly up to 12.7 µM; note: nearly all actives have a fitted effect of over 25% in size
Records with an inconclusive call do not appear. Activity calls are given as the source filed them. Calls come from the whole dose curve; as a rule, active = well fitted inhibition curve with a large enough effect; inconclusive = small, poorly fitted or top-dose-only effect; inactive = no such curve, though single readings can be large or run the other way.
Just give me one of these, please: T (active), F (inactive)

Dear all, I need the recorded test outcome for `COc1cccc(OC)c1NC(=O)c1ccc(-c2cc(Cl)ccc2Cl)o1` , thank you.
F

Dear all, I need the recorded test outcome for `O=C(Nc1ccc2nc(-c3ccc4nc[nH]c4c3)[nH]c2c1)c1cccs1` , thank you.
F

Dear all, I need the recorded test outcome for `O=C(O)c1ccc(N/N=C/c2c(F)cccc2Cl)cc1` , thank you.
F

Dear all, I need the recorded test outcome for `CN(C(=O)COC(=O)/C=C/c1ccc2c(c1)OCO2)c1c(N)n(Cc2ccccc2)c(=O)[nH]c1=O` , thank you.
F

Dear all, I need the recorded test outcome for CC1CCCN(CC(=O)Nc2cc(Cl)ccc2Oc2ccccc2)C1 (stereo unspecified) , thank you.
F

Dear all, I need the recorded test outcome for `C=CCSc1nc(-c2ccc(OC)cc2)c(C#N)c(=O)n1CC=C` , thank you.
F

Dear all, I need the recorded test outcome for `CCOc1cc(S(=O)(=O)N(CC)CC)ccc1Cl` , thank you.
F

Dear all, I need the recorded test outcome for `CCc1nnc(NS(=O)(=O)c2ccc(NC(=S)NC(=O)/C=C/c3ccccc3)cc2)s1` , thank you.
F

Dear all, I need the recorded test outcome for `COc1ccc(C(C#N)=Cc2cccc(OC)c2OC)cc1` , thank you.
T

Dear all, I need the recorded test outcome for OC1(c2ccccc2)CC(c2ccccc2)c2ccccc2O1 (stereo unspecified) , thank you.
F

Dear all, I need the recorded test outcome for CC1CC(C)CN(C(=O)COC(=O)CNC(=O)C23CC4CC(CC(C4)C2)C3)C1 (stereo unspecified) , thank you.
F
